Target: T1, human VPAC2 receptor (human, UniProt P41587 24-438)
T1 construct: whole, on cells; CHO-S cell line stably expressing human VPAC2 (cAMP assays)
T1 sequence (looked up): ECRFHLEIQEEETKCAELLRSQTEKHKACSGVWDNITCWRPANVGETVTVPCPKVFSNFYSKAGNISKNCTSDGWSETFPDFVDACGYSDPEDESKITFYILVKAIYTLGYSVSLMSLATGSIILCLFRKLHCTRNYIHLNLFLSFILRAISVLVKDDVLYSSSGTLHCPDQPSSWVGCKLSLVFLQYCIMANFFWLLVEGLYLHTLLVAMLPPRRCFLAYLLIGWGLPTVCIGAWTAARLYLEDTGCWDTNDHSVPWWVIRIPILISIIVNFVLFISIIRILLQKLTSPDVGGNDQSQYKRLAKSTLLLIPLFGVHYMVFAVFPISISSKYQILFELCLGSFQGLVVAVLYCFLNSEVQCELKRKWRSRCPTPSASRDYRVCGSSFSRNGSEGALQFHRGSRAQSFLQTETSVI
Test: filter binding, VPAC2 cell membranes, displacement of 125I-VIP
Reported property: IC50

binder="HSDAVFTEQYTXLRXQLAAXXYXQSIXXGGPSSGAPPPCC (C6-HSDAVFTEQY(OMe)TOrnLRAibQLAAAibOrnYAibQSIOrnOrnGGPSSGAPPPC(PEG20K)C(PEG20K)-NH2) [P513]" recorded_result="50.5 nM"
binder="HSDAVFTEQYTXLRXQLAXXXYLQXCXXGGPSSGAPPPS (C6-HSDAVFTEQY(OMe)TOrnLRAibQLAAbuAibOrnYLQAibC(PEG40K)OrnOrnGGPSSGAPPPS-NH2) [P541]" recorded_result="59.8 nM"
binder="HSDAVFTEQYTXLRXQLAXXXYLQXIXXCGGPSSGAPPPC (C6-HSDAVFTEQY(OMe)TOrnLRAibQLAAbuAibOrnYLQAibIOrnOrnC(PEG20K)GGPSSGAPPPC(PEG20K)-NH2) [P580]" recorded_result="20.7 nM"
binder="HSDAVFTEQYTXLRXQVAAXXYLXSIXXGGPSSGAPPPS (C6-HSDAVFTEQY(OMe)TOrnLRAibQVAAAibOrnYLK(WPEG40K)SIOrnOrnGGPSSGAPPPS-NH2) [P531]" recorded_result="69.7 nM"
binder="HSDAVFTEQYTXLRXQLAXXXYLQSIXXXGGPSSGAPPPC (C6-HSDAVFTEQY(OMe)TOrnLRAibQLAAbuAibOrnYLQSIOrnK(CO(CH2)2SPEG20K)OrnGGPSSGAPPPC(PEG20K)-NH2) [P551]" recorded_result="16.6 nM"
binder="HSDAVFTEQYTXLRXQVAAXXYLXSIXXGGPSSGAPPPC (C6-HSDAVFTEQY(OMe)TOrnLRAibQVAAAibOrnYLK(CO(CH2)2SPEG20K)SIOrnOrnGGPSSGAPPPC(PEG20K)-NH2) [P490]" recorded_result="13.2 nM"
